- Tested on: Mus musculus
- assay protocol: Anticonvulsant activity in Swiss albino mouse assessed as protection against pentylenetetrazole-induced convulsion at 1.5 mmol/kg, ip treated after 30 mins of pentylenetetrazole measured for 30 mins
- Type: functional
Below, each entry is listed with its recorded Activity.
readout: Activity (%)

* O=C1CCCN2C(=N1)Oc1ccc(Cl)cc12 | 67
* O=C1CCCN2C=CSC2=N1 | 0
* O=C1CCCN2C=C(Br)SC2=N1 | 30
* O=C1CCCN2C(=N1)Sc1cc(Cl)ccc12 | 50
* S=C1CCCN2C=CSC2=N1 | 0
* O=C1CCCN2C(=N1)Sc1ccccc12 | 70
* S=C1CCCN2C=C(Br)SC2=N1 | 100
